The values you see were collected from a melting point compilation (Tetko et al.; mined from patent text by program, amines drawn as free bases though some values may be those of a salt).

smi | melting point
C[C@H](O)[C@@H](CCc1cccc(Cl)c1Cl)n1cnc(C(N)=O)c1 | 70 to 75 °C
Cn1cnc(COc2nc3c(cc2-c2cccs2)nnn3-c2ccccc2F)n1 | 179 to 181 °C
CNc1nccc(-c2cc(NCCCNCCCOC)c3cc(OC)ccc3c2)n1 | 130 to 132 °C

* * *

// reported melting point per item

smi | melting point
ON=Cc1cc2c(cn1)[nH]c1ccccc12 | 157 to 159 °C
O=c1c2c(Cc3ccc(OC(F)(F)F)cc3)n[nH]c2c2cccnc2n1-c1cccc(C(F)(F)F)c1 | 134 to 137 °C
O=Cc1ccc2ccnc(NC(=O)c3ccccc3)c2c1 | 138 to 139 °C
CC(C)COC(=O)C(C#N)=CNCCc1ccco1 | 42 to 44 °C
Cc1ccc(-c2cn(C)cc(-c3ccc(Cl)c(Cl)c3)c2=O)cc1C | 150 to 152 °C
